Below, each of the compounds is paired with its reported concentration at 0.5 h value.
assay: Drug level in Swiss mouse brain at 10 mg/kg, sc after 0.5 hrs; type: ADME, organism-based; set-up: dose 10 mg/kg, route subcutaneous; conditions: read-out: Drug uptake

{"columns": ["Compound string", "concentration at 0.5 h (ng/g)"],
 "data": [
  ["CCCCn1ccc(-c2ccc(Oc3ccnc(C)c3)cc2)c(C#N)c1=O", 1160],
  ["CCCCn1ccc(-c2ccc(Oc3ccc(C)nc3C)c(Cl)c2)c(C#N)c1=O", 1480],
  ["CCCCn1ccc(-c2ccc(Oc3ccnc(C)c3)c(F)c2)c(C#N)c1=O", 1280],
  ["Cc1ccc(Oc2ccc(-c3ccn(CC4CC4)c(=O)c3C#N)cc2Cl)c(C)n1", 750],
  ["CCCCn1ccc(-c2ccc(Oc3cccnc3C)cc2)c(C#N)c1=O", 822]
]}

###

assay: Ratio of drug level in brain to plasma in Swiss mouse at 10 mg/kg, sc after 1 hr; assay type: ADME, organism-based; design: dose 10 mg/kg, route subcutaneous; settings: read-out: BPR

{"columns": ["Compound string", "Kp at 1 h"],
 "data": [
  ["CCCCn1ccc(-c2ccc(Oc3ccnc(C)c3)cc2)c(C#N)c1=O", 0.5],
  ["CCCCn1ccc(-c2ccc(Oc3ccc(C)nc3C)c(Cl)c2)c(C#N)c1=O", 0.4],
  ["CCCCn1ccc(-c2ccc(Oc3cccnc3C)cc2)c(C#N)c1=O", 0.3],
  ["CCCCn1ccc(-c2ccc(Oc3ccnc(C)c3)c(F)c2)c(C#N)c1=O", 0.6],
  ["Cc1ccc(Oc2ccc(-c3ccn(CC4CC4)c(=O)c3C#N)cc2Cl)c(C)n1", 0.1]
]}

###

test: Aqueous solubility of the compound in 20% HP-beta-CD buffer at pH 4 to 7.4; format: physicochemical

{"columns": ["Compound string", "solubility"],
 "data": [
  ["CC(C)CCn1ccc(-c2ccc(Oc3ccccc3)cc2)c(C#N)c1=O", "> 1 µg/mL"]
]}

###

molecular target: CYP2D6 (Homo sapiens, UniProt P10635); experiment: Inhibition of CYP2D6 at 1 uM; type: ADME
Sequence (P10635 whole entry): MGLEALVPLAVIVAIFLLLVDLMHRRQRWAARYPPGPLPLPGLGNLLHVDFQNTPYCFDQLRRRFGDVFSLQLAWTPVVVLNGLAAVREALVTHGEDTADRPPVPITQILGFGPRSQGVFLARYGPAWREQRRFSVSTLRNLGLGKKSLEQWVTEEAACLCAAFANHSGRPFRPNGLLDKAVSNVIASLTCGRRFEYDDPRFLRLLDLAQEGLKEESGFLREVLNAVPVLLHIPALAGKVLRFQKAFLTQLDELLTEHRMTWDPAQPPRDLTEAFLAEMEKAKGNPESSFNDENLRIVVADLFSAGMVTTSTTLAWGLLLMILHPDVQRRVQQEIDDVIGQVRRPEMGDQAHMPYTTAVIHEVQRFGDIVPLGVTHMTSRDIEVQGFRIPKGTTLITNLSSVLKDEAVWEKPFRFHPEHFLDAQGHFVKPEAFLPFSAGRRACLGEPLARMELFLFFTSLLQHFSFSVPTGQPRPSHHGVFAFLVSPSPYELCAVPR

{"columns": ["Compound string", "inhibition at 1 µM [%]"],
 "data": [
  ["CC(C)CCn1ccc(-c2ccc(Oc3ccncc3)cc2)c(C#N)c1=O", 84]
]}

###

Below, each of the compounds is paired with its reported inhibition at 5 min, 3 µM value.
molecular target: hERG (Homo sapiens, UniProt Q12809); experiment: Inhibition of human ERG expressed in HEK293 cells assessed as whole cell current at 3 uM after 5 mins by automated patch-clamp assay relative to control; format: cell-based; details: HEK293 cells expressing hERG
Sequence (Q12809 whole entry): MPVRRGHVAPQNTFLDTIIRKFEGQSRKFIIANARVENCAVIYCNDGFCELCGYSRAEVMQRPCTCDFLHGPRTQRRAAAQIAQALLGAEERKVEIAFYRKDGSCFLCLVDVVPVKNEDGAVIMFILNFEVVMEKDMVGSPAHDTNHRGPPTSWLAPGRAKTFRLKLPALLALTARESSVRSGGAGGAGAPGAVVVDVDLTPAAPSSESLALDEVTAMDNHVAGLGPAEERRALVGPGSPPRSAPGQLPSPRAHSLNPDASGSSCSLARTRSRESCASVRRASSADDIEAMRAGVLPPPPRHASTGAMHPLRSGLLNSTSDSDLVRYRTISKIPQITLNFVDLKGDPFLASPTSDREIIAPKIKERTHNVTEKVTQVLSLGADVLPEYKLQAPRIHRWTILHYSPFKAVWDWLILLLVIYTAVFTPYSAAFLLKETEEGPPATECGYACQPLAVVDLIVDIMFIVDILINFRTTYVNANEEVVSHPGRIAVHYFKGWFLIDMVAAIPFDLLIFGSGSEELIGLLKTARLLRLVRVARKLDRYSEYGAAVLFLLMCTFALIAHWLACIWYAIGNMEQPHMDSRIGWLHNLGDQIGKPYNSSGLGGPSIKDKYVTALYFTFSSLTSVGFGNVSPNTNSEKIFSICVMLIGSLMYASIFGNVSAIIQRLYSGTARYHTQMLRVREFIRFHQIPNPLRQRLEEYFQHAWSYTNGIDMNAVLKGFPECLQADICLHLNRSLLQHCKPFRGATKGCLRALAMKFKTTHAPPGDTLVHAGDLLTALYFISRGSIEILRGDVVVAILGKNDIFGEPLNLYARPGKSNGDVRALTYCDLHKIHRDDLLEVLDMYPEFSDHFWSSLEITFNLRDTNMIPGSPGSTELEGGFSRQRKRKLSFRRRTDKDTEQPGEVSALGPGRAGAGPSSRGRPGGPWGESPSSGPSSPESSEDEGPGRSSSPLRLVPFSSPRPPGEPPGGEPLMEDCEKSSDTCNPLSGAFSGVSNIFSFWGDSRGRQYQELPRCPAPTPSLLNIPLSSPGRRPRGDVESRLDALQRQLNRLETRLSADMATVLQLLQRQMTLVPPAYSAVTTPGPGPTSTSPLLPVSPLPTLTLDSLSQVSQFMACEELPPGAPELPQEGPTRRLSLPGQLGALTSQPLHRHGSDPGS

{"columns": ["Compound string", "Tgt", "inhibition at 5 min, 3 µM"],
 "data": [
  ["CCCCn1ccc(-c2ccc(Oc3ccc(C)nc3C)c(Cl)c2)c(C#N)c1=O", "hERG (Homo sapiens, UniProt Q12809)", "80%"],
  ["Cc1cc(Oc2ccc(-c3ccn(CC4CCC4)c(=O)c3C#N)cc2)ccn1", "hERG (Homo sapiens, UniProt Q12809)", "80%"],
  ["CCCCn1ccc(-c2ccc(Oc3cccnc3C)c(Cl)c2)c(C#N)c1=O", "hERG (Homo sapiens, UniProt Q12809)", "56%"],
  ["CC(C)CCn1ccc(-c2ccc(Oc3cccnc3)cc2)c(C#N)c1=O", "hERG (Homo sapiens, UniProt Q12809)", "30%"],
  ["CCCCn1ccc(-c2ccc(Oc3cccnc3C)cc2)c(C#N)c1=O", "hERG (Homo sapiens, UniProt Q12809)", "31%"]
]}

FYI, the data here is from ChEMBL document CHEMBL2029212.
